Cited source for all entries: paper PMC6201084

target: neuraminidase (NA) of influenza B/Perth/136/2015 (MUT-Y273, H273Y NA substitution) (Influenza B virus, UniProt A0A1S5RAG6, H273Y)
Type: biochemical
test-parameters: read-out: IC50 (nM), mean ± SD
experimental-endpoint: IC50

INSERT INTO measurements (molecule, test_value) VALUES
  ('CCC(CC)[C@H](NC(C)=O)[C@@H]1[C@H](O)[C@@H](C(=O)O)C[C@H]1N=C(N)N [Peramivir, peramivir]', '80.9 nM');

----------
target: neuraminidase (NA) of influenza B/Singapore/GP702/2015 (MUT-N197, D197N NA substitution) (Influenza B virus, UniProt A0A1S5RAG6, D197N)
Format: biochemical
test-parameters: read-out: IC50 (nM), mean ± SD
experimental-endpoint: IC50 (nM)

INSERT INTO measurements (smiles_repr, reading_unit, test_value) VALUES
  ('CCC(CC)[C@H](NC(C)=O)[C@@H]1[C@H](O)[C@@H](C(=O)O)C[C@H]1N=C(N)N', 'nM', 3);
